assay: Oral and transdermal celecoxib concentrations in canine sera and synovial fluid; type: in vivo; details: dog, synovial fluid, 30 mg; dogs; Oral; Washout (7 days); read-out: Synovial fluid drug concentration of celecoxib
Measure: concentration at 7 days (ng/mL)

- Compound: "Cc1ccc(-c2cc(C(F)(F)F)nn2-c2ccc(S(N)(=O)=O)cc2)cc1 [celecoxib]"
  Recorded Result: 1

---

test: Oral and transdermal celecoxib concentrations in canine sera and synovial fluid; type: in vivo; conditions: dog, serum, 30 mg; dogs; Oral; Washout (7 days); read-out: Serum drug concentration of celecoxib

- Input Smiles: "Cc1ccc(-c2cc(C(F)(F)F)nn2-c2ccc(S(N)(=O)=O)cc2)cc1"
  concentration at 7 days [ng/mL]: 0

---

assay: Oral and transdermal celecoxib concentrations in canine sera and synovial fluid; format: in vivo; details: dog, synovial fluid, topical, 60 mg; dogs; Transdermal, 3% celecoxib in formulation 4, 120 mg/day; Chronic administration (6 days); read-out: Synovial fluid drug concentration of celecoxib

- Input Smiles: "Cc1ccc(-c2cc(C(F)(F)F)nn2-c2ccc(S(N)(=O)=O)cc2)cc1"
  concentration at 60 min [ng/mL]: 203

---

assay: Oral and transdermal celecoxib concentrations in canine sera and synovial fluid; format: in vivo; conditions: dog, serum, topical, 60 mg; dogs; Transdermal (formulation 4); Washout (7 days); read-out: Serum drug concentration of celecoxib
Measure: concentration at 7 days (ng/mL)

- Input Smiles: "Cc1ccc(-c2cc(C(F)(F)F)nn2-c2ccc(S(N)(=O)=O)cc2)cc1"
  Unit Tag: "ng/mL"
  Recorded Result: 4
